# Tested on: cynomologous monkey C17,20 lyase
# assay_details: In vitro C17,20 lyase assay (testicular microsomes)
# Type: biochemical, cynomolgus monkey
# Parameters: unit of the concentration uncertain
# recorded_conditions: Conc. 1 (unit uncertain), Preinc. 0 min
Hi there, I'd appreciate the recorded % Inhibition for every entry that follows.
Answers are plain numbers, in %.

• C[C@]12CC[C@H](O)CC1=CC[C@@H]1[C@@H]2CC[C@]2(C)/C(=C(/F)CO)CC[C@@H]12 = 63
• C[C@]12CC[C@H](O)CC1=CC[C@@H]1[C@@H]2CC[C@]2(C)/C(=C(\F)CO)CC[C@@H]12 = 96
• C/C(F)=C1/CC[C@H]2[C@@H]3CC=C4C[C@@H](O)CC[C@]4(C)[C@H]3CC[C@]12C = 54

cynomologous monkey C17,20 lyase / % Inhibition / C/C(F)=C1\CC[C@H]2[C@@H]3CC=C4C[C@@H](O)CC[C@]4(C)[C@H]3CC[C@]12C : value?
49
